TEST TARGET: human CD33 H259A (human, UniProt P20138 18-364)
Sequence (P20138 18-364 H259A limits assumed): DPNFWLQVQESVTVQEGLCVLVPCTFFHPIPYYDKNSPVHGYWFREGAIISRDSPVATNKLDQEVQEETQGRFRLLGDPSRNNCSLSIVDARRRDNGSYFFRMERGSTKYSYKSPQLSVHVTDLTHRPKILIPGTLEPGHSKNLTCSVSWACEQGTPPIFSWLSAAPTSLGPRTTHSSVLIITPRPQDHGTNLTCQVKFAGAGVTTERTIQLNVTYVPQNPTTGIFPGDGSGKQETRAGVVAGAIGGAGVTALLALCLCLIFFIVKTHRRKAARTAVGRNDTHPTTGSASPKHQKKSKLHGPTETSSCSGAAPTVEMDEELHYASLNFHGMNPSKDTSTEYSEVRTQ
PROCEDURE TEXT: alanine scan, flow cytometry, HEK293-T;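 also: antibody binding to each alanine-substituted CD33 mutant expressed transiently in HEK293-T, read as fluorescence minus background, mean of duplicates, relative to wild-type CD33 set as 100%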
REPORTED ENDPOINT: Mean % WT Binding (% WT binding)

Refmab #3 (antibody, V domains shown, The alanine scan used IgG or Fab) VH: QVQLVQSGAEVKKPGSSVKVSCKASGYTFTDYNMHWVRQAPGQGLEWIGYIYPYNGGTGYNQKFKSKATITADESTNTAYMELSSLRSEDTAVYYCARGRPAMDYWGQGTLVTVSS VL: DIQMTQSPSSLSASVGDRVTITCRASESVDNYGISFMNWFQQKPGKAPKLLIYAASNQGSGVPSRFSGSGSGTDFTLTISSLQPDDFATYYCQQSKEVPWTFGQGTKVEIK    104
Refmab #2 (antibody, V domains shown, The alanine scan used IgG or Fab) VH: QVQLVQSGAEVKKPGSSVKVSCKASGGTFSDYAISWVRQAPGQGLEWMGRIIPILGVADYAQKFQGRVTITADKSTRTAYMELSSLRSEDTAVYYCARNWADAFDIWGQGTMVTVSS VL: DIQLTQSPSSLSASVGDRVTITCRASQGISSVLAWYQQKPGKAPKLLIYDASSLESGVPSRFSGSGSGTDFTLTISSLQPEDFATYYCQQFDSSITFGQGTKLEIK    109
Refmab #1 (antibody, V domains shown, The alanine scan used IgG or Fab; also called hP67.6) VH: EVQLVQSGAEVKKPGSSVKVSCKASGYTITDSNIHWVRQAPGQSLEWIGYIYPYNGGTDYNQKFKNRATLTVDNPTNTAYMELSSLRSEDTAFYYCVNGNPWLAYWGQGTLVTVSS VL: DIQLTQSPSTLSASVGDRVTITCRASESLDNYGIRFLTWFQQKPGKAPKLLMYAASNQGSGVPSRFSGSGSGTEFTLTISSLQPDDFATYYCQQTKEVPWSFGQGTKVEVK    97.4
Refmab #4 (antibody, V domains shown, The alanine scan used IgG or Fab) VH: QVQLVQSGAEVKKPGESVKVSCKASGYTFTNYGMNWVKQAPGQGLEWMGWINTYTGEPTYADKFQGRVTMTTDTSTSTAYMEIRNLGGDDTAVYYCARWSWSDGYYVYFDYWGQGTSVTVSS VL: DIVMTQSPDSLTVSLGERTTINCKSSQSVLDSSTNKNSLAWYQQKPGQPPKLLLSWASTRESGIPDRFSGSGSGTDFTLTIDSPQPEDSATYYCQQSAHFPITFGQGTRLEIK    114

Where do the numbers come from? From patent US20260242735A1.
